Measured cytotoxicity at 24 h, 100 µM, listed per entry for reference.
- Measurement notes: Cytotoxicity assay (resazurin) in Hep G2 cells
- Type: cell-based, human
- Details: human, Hep G2 hepatocarcinoma cells (ATCC HB-8065); Hep G2, 100 µM, n = 9; read-out: Cytotoxicity (% cell growth inhibition) at 100 µM ± SD
Give the value, in units of %, as a plain number.

Sample records with cytotoxicity at 24 h, 100 µM:
COC1=CC(c2cc3ccccc3[nH]2)=N/C1=C\c1[nH]c(C)cc1C [Obatoclax, reference compound] = 74.8
O=C(Cn1ccnc1[N+](=O)[O-])NCc1ccccc1 [Benznidazole, reference compound] = 0.18
CCc1c(-c2ccc[nH]2)[nH]c(/C=N/C2CCCCC2)c1C = 94.4

Okay, now this compound:
Query: Dear colleague, I am looking for the recorded cytotoxicity at 24 h, 100 µM of the following compound: CCc1c(-c2ccc[nH]2)[nH]c(/C=N/c2ccc(C(C)(C)C)cc2)c1C
Response: 85.2

----------
- Measurement notes: Cytotoxicity assay (resazurin) in Hep G2 cells
- Format: cell-based, human
- Details: human, Hep G2 hepatocarcinoma cells (ATCC HB-8065); Hep G2, 10 µM, n = 9; read-out: Cytotoxicity (% cell growth inhibition) at 10 µM ± SD
Experimental endpoint: cytotoxicity at 24 h, 10 µM
Please give the number followed by its unit.

Sample records with cytotoxicity at 24 h, 10 µM:
CCc1c(-c2ccc[nH]2)[nH]c(/C=N/c2ccc(C(C)(C)C)cc2)c1C = 19.1%
COC1=CC(c2cc3ccccc3[nH]2)=N/C1=C\c1[nH]c(C)cc1C [Obatoclax, reference compound] = 63.3%
O=C(Cn1ccnc1[N+](=O)[O-])NCc1ccccc1 [Benznidazole, reference compound] = 0.44%

Query: Dear colleague, I am looking for the recorded cytotoxicity at 24 h, 10 µM of the following compound: CCc1c(-c2ccc[nH]2)[nH]c(/C=N/C2CCCCC2)c1C
Response: 24.9%

----------
- Test system: human hepatocarcinoma cells (Hep G2)
- Measurement notes: Cytotoxicity assay (resazurin) in Hep G2 cells
- Format: cell-based
- Details: Homo sapiens, HepG2; read-out: IC50 (µM) Hep G2 cell growth inhibition
Experimental endpoint: IC50 (µM)
Give the value, in units of µM, as a plain number.

Sample records with IC50:
CCc1c(-c2ccc[nH]2)[nH]c(/C=N/C2CCCCC2)c1C = 46
COC1=CC(c2cc3ccccc3[nH]2)=N/C1=C\c1[nH]c(C)cc1C [Obatoclax, reference compound] = 8.18

Okay, now this compound:
Query: Dear colleague, I am looking for the recorded IC50 of the following compound: CCc1c(-c2ccc[nH]2)[nH]c(/C=N/c2ccc(C(C)(C)C)cc2)c1C
Response: 52.5

----------
- System: intact epimastigotes of T. cruzi
- Measurement notes: Oxygen consumption inhibition analysis (high-resolution respirometry)
- Type: cell-based, Trypanosoma cruzi
- Details: compound at ½ IC50
- Procedure: Intact epimastigotes were collected by centrifugation, washed twice in PBS, and resuspended with respiration buffer containing 125 mM sucrose, 65 mM KCL, 10 mM Tris-HCl (pH 7.2), 1 mM […], and 2.5 mM K2PO4. They were then added to a final concentration of 25 × 10^6 cells/mL. To evaluate the effect of the different drugs on mitochondrial function, we measured mitochondrial respiration in the cells before and after the addition of increasing volumes of the compounds. […]
Measured % Oxygen Uptake Inhibition (½ IC50), listed per entry for reference.
Give the value, in units of %, as a plain number.

CCc1c(-c2ccc[nH]2)[nH]c(/C=N/C2CCCCC2)c1C = 41.26
CCCCCC1=C/C(=C/c2[nH]c(-c3ccc[nH]3)cc2OC)N=C1C [Natural prodigiosin, prodigiosin] = 72.8
CCc1c(-c2ccc[nH]2)[nH]c(/C=N/c2ccc(C(C)(C)C)cc2)c1C = 2.60

Query: Dear colleague, I am looking for the recorded % Oxygen Uptake Inhibition (½ IC50) of the following compound: CCCCCC1=C/C(=C/c2[nH]c(-c3ccc[nH]3)cc2OC)N=C1C [Synthetic prodigiosin, prodigiosin]
Response: 13.58

Query: Would you kindly repeat that for COC1=CC(c2cc3ccccc3[nH]2)=N/C1=C\c1[nH]c(C)cc1C [Obatoclax, reference compound] ?
Response: 0

----------
- Measurement notes: Transmembrane anion transport (chloride efflux) in POPC vesicles
- Details: external nitrate, read-out: EC50 (µM) NO3–/Cl–
Experimental endpoint: EC50 (µM)
Give the value, in units of µM, as a plain number.

Query: Dear colleague, I am looking for the recorded EC50 of the following compound: CCCCCC1=C/C(=C/c2[nH]c(-c3ccc[nH]3)cc2OC)N=C1C
Response: 0.002

----------
Measured cytotoxicity at 24 h, 16 µM, listed per entry for reference.
- Measurement notes: Cytotoxicity assay (resazurin) in L-929 fibroblasts
- Type: cell-based, mouse
- Details: mouse, L-929 fibroblasts (NCTC clone 929); L-929, 16 µM, n = 9; read-out: % Cytotoxicity ± SD
Give the value, in units of %, as a plain number.

CCc1c(-c2ccc[nH]2)[nH]c(/C=N/c2ccc(C(C)(C)C)cc2)c1C [MM4] = 64.2
COC1=CC(c2cc3ccccc3[nH]2)=N/C1=C\c1[nH]c(C)cc1C [Obatoclax, reference compound] = 63.5
CCc1c(-c2ccc[nH]2)[nH]c(/C=N/C2CCCCC2)c1C [MM3] = 88.4
O=C(Cn1ccnc1[N+](=O)[O-])NCc1ccccc1 [Benznidazole, reference compound] = 0

Query: Dear colleague, I am looking for the recorded cytotoxicity at 24 h, 16 µM of the following compound: CCCCn1cc(-c2cc(OC)c(/C=C3\N=C(C)C=C3C)[nH]2)nn1 [EH123]
Response: 3.72

----------
- System: trypomastigotes/amastigotes of T. cruzi (CLB strain)
- Measurement notes: Trypomastigote/amastigote susceptibility assay in infected L-929 fibroblasts
- Type: cell-based, Trypanosoma cruzi
- Details: read-out: IC50 (µM) trypomastigote/amastigote growth inhibition; CLB strain, 96 h treatment
Measured IC50, listed per entry for reference.

CCCCCC1=C/C(=C/c2[nH]c(-c3ccc[nH]3)cc2OC)N=C1C [Natural prodigiosin, prodigiosin] = 0.1 µM

Okay, now this molecule:
Query: Dear colleague, I am looking for the recorded IC50 of the following molecule: CCCCCC1=C/C(=C/c2[nH]c(-c3ccc[nH]3)cc2OC)N=C1C [Synthetic prodigiosin, prodigiosin]
Response: 0.57 µM

----------
- Measurement notes: Cytotoxicity assay (resazurin) in Hep G2 cells
- Format: cell-based, human
- Details: human, Hep G2, 10 µM, n = 9; read-out: Cytotoxicity (% cell growth inhibition) at 10 µM ± SD
Experimental endpoint: cytotoxicity at 24 h, 10 µM

Query: Dear colleague, I am looking for the recorded cytotoxicity at 24 h, 10 µM of the following molecule: CCCCCC1=C/C(=C/c2[nH]c(-c3ccc[nH]3)cc2OC)N=C1C [Synthetic prodigiosin, prodigiosin]
Response: 90.5%

----------
- Measurement notes: Cytotoxicity assay (resazurin) in L-929 fibroblasts
- Assay type: cell-based, mouse
- Details: mouse, L-929, 16 µM, n = 9; read-out: % Cytotoxicity ± SD
- Excerpt: Mouse L-929 fibroblasts (NCTC clone 929, ECACC 88102702) were used for both drug toxicity and infection assays. Cell line was obtained from Dr. Concepció Soler, Dept. Pathology & Experimental therapeutics, Faculty of Medicine and Health Sciences, University of Barcelona, Spain. […]
Experimental endpoint: cytotoxicity at 24 h, 16 µM (%)
Give the value, in units of %, as a plain number.

Query: Dear colleague, I am looking for the recorded cytotoxicity at 24 h, 16 µM of the following compound: CCCCCC1=C/C(=C/c2[nH]c(-c3ccc[nH]3)cc2OC)N=C1C [Natural prodigiosin, prodigiosin]
Response: 95.8

----------
- Measurement notes: Cytotoxicity assay (resazurin) in Hep G2 cells
- Format: cell-based, human
- Details: human, Hep G2, 100 µM, n = 9; read-out: Cytotoxicity (% cell growth inhibition) at 100 µM ± SD
- Text: Mouse L-929 fibroblasts (NCTC clone 929, ECACC 88102702) were used for both drug toxicity and infection assays. Cell line was obtained from Dr. Concepció Soler, Dept. Pathology & Experimental therapeutics, Faculty of Medicine and Health Sciences, University of Barcelona, Spain. […]
Experimental endpoint: cytotoxicity at 24 h, 100 µM (%)
Give the value, in units of %, as a plain number.

Query: Dear colleague, I am looking for the recorded cytotoxicity at 24 h, 100 µM of the following compound: CCCCCC1=C/C(=C/c2[nH]c(-c3ccc[nH]3)cc2OC)N=C1C [Synthetic prodigiosin, prodigiosin]
Response: 95.2
